ASSAYED TARGET: Thyroid hormone receptor beta (Homo sapiens, UniProt P10828)
Sequence (P10828 whole entry): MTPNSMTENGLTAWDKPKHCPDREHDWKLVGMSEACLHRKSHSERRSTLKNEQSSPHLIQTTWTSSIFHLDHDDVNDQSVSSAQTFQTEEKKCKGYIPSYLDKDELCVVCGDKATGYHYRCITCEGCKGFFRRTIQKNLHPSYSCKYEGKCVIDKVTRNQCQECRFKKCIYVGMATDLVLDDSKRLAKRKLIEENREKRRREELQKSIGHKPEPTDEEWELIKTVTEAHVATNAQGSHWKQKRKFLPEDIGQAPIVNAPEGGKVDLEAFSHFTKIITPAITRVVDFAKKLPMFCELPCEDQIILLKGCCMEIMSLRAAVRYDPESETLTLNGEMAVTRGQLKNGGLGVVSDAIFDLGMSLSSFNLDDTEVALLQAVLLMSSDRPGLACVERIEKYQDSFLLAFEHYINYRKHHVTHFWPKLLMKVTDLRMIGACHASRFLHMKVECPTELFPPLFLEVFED
MEASURE: pIC50
Answers are plain numbers, as −log10 of the molar value.

> print(dat)
                                   molecule  experimental.value
1  O=c1cnn(-c2cc(Cl)c(Oc3ccc(O)c(S(=O)(=O)N4C5CCC4CC4(CCCO4)C5)c3)c(Cl)c2)c(=O)[nH]1 (stereo not given)                9.11
2  O=c1cnn(-c2cc(Cl)c(Oc3ccc(O)c(S(=O)(=O)NC4CCC4)c3)c(Cl)c2)c(=O)[nH]1                8.95
3  COc1ccccc1CCNC(=O)c1cc(Oc2c(Br)cc(CC(=O)O)cc2Br)ccc1O                9.33
4  CC1(C)C2CCC(NC(=O)c3cc(Oc4c(Cl)cc(-n5ncc(=O)[nH]c5=O)cc4Cl)ccc3O)C1C2 (stereo in doubt; 43)                9.95

# context switch: different molecule, same pIC50
I would be grateful if you could share the reported pIC50 for Cc1cc(-n2ncc(=O)[nH]c2=O)cc(C)c1Oc1ccc(O)c(S(=O)(=O)N2CCCCC2)c1 .
8.89

* * *

ASSAYED TARGET: Thyroid hormone receptor beta (Homo sapiens)
Sequence (P10828 whole entry): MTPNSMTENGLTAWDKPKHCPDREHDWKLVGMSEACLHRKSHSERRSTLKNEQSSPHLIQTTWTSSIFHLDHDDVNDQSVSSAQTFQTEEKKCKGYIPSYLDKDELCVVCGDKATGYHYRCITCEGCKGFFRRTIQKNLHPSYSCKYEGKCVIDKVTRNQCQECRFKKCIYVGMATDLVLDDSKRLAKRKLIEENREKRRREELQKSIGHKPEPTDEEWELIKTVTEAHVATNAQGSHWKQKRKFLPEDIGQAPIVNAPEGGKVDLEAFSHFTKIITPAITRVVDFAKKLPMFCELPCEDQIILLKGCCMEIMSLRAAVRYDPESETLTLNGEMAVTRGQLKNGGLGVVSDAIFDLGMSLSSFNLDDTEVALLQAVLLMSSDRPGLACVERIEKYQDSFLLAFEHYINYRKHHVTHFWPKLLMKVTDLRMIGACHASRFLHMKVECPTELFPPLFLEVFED
pIC50: −log10 of the molar value.
// label = satisfied if pIC50 is not less than 9, otherwise not satisfied

// below: answered compounds
> print(dat)
                                   compound  assigned.class
1  CC1(C)C2CCC(NC(=O)c3cc(Oc4c(Cl)cc(-n5ncc(=O)[nH]c5=O)cc4Cl)ccc3O)C1C2 (stereo in doubt; 42)       satisfied
2  O=C(O)Cc1cc(Br)c(Oc2ccc(O)c(C(=O)NC(=O)c3ccccc3)c2)c(Br)c1   not satisfied
3  O=C(c1cc(Oc2c(Cl)cc(-n3ncc(=O)[nH]c3=O)cc2Cl)ccc1O)N1CCOCC1   not satisfied
4  Cc1cc(-n2ncc(=O)[nH]c2=O)cc(Cl)c1Oc1ccc(O)c(S(=O)(=O)N2CCCCC2)c1       satisfied

Is reported pIC50 greater than or equal to 9 here: O=C(NC1CCCCC1)c1cc(Oc2c(Cl)cc(-n3ncc(=O)[nH]c3=O)cc2Cl)ccc1O
satisfied

* * *

Would you mind telling me the reported IC50 of each entry?
Target sequence: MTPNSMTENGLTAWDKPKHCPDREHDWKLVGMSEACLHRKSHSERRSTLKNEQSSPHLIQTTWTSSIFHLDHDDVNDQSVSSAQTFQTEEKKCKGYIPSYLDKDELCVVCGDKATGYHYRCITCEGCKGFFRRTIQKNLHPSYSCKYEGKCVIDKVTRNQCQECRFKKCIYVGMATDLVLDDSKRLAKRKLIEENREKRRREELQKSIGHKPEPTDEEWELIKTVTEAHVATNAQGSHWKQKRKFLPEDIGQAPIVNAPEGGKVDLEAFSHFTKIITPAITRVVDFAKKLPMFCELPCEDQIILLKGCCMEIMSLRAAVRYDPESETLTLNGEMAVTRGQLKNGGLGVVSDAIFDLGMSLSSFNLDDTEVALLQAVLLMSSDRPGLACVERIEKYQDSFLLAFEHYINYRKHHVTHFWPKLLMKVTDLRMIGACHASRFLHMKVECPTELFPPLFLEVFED
Answers are plain numbers, in nM.

> print(dat)
                                   compound  result.units  experimental.value
1  O=c1cnn(-c2cc(Cl)c(Oc3ccc(O)c(S(=O)(=O)NC4CCCCC4)c3)c(Cl)c2)c(=O)[nH]1            nM                1.29
2  O=C(NC1CCC1)c1cc(Oc2c(Cl)cc(-n3ncc(=O)[nH]c3=O)cc2Cl)ccc1O            nM                1.78

# context switch: different compound, same IC50
I would be grateful if you could share the reported IC50 for CC1(C)C2CCC1(C)[C@H](NC(=O)c1cc(Oc3c(Cl)cc(-n4ncc(=O)[nH]c4=O)cc3Cl)ccc1O)C2 (stereo partly drawn) .
1.02
